- System: NHBE cells
- experimental.protocol: Biolog metabolic array: substrate use by NHBE cells with or without CA09 infection
- Assay type: cell-based, human
- condition.parameters: Virus (CA09-infected NHBE cells, MOI 1); 3 hr
Hi! Could you tag entries with 590 nm absorbance normalized to zero hour (substrate use), 3 hr below 0.5 as TRUE, and those at or above as FALSE? Much appreciated.

compound	label.class
C[C@H](O)[C@H](O)[C@@H](O)[C@@H](O)C=O	TRUE
O=C(CO)[C@@H](O)[C@H](O)[C@H](O)CO	FALSE
OC[C@H]1O[C@@H](O[C@H]2[C@H](O)[C@@H](O)[C@@H](O)O[C@@H]2CO)[C@H](O)[C@@H](O)[C@H]1O	TRUE
CCCCCC(=O)O	TRUE
OC[C@@H]1OC(O)[C@@H](O)[C@H](O)[C@H]1O (stereo partly shown)	TRUE
O=C(O)CCCO [g-Hydroxy-Butyric Acid]	TRUE
C[C@@H]1OC(O)[C@@H](O)[C@H](O)[C@@H]1O (stereo partly shown)	TRUE
C[C@@H](O)[C@H](O)[C@H](O)[C@@H](O)C=O	FALSE
CCC(=O)C(=O)O	TRUE
O=C(O)C(O)C(O)C(=O)O (stereo not shown)	FALSE

###

- Test system: NHBE cells
- experimental.protocol: Biolog metabolic array: substrate use by NHBE cells with or without CA09 infection
- Format: cell-based, human
- condition.parameters: Virus (CA09-infected NHBE cells, MOI 1); 1 hr
Lab note: compare 590 nm absorbance normalized to zero hour (substrate use), 1 hr against 0.4. Equal or greater, write Condition met. Smaller, write Condition not met.

molecule	label.class
OC[C@@H](O)[C@@H](O)[C@@H](O)CO [Adonitol]	Condition not met
O=C(CO)[C@@H](O)[C@H](O)[C@H](O)CO [D-Fructose]	Condition met
Nc1ncnc2c1ncn2[C@@H]1O[C@H](CO)[C@@H](O)[C@H]1O [Adenosine]	Condition met
O=C(O)CC(CC(=O)O)C(=O)O [Tricarballylic Acid]	Condition not met
O[C@H]1[C@H](O)[C@@H](O)[C@H](O)[C@@H](O)[C@H]1O [m-Inositol]	Condition met
C[C@@H](O)[C@H](O)[C@H](O)[C@@H](O)C=O [D-Fucose]	Condition met
OC[C@@H](O)[C@@H](O)CO [i-Erythritol]	Condition not met
CC(=O)C(C)O (stereo not shown) [3-Hydroxy 2-Butanone]	Condition met
O=C(O)CCCO [g-Hydroxy-Butyric Acid]	Condition met
CO[C@H]1O[C@H](CO)[C@@H](O)[C@H](O)[C@@H]1O [a-Methyl-D-Mannoside]	Condition not met

###

- Tested on: NHBE cells
- experimental.protocol: Biolog metabolic array: substrate use by NHBE cells with or without CA09 infection
- Format: cell-based, human
- condition.parameters: Control (uninfected) NHBE cells, Biolog PMM2, 5 hr
Measured Substrate use, 590 nm absorbance normalized to zero hour, 5 hr values are reported for all entries that follow.
measured.property: Substrate use, 590 nm absorbance normalized to zero hour, 5 hr

compound	assay.system	endpoint.result
CC(O)CO (centres unmarked) [1,2-Propanediol]	NHBE cells	1.27
OC[C@H]1O[C@H](O[C@H]2[C@H](O)[C@@H](O)[C@H](O)O[C@@H]2CO)[C@H](O)[C@@H](O)[C@@H]1O [Maltose]	NHBE cells	1.53
NC(=O)CCC(=O)O [Succinamic Acid]	NHBE cells	0.45
CC(O)C(=O)O [L-Lactic Acid (DL)]	NHBE cells	3.09
OC[C@@H](O)[C@@H](O)[C@H](O)[C@@H](O)CO [D-Sorbitol]	NHBE cells	4.59

###

- System: NHBE cells
- experimental.protocol: Biolog metabolic array: substrate use by NHBE cells with or without CA09 infection
- Type: cell-based, human
- condition.parameters: Control (uninfected) NHBE cells, 2 hr
Measured 590 nm absorbance normalized to zero hour (substrate use), 2 hr values are reported for all entries that follow.
measured.property: 590 nm absorbance normalized to zero hour (substrate use), 2 hr

compound	endpoint.result
CO[C@H]1O[C@H](CO)[C@@H](O)[C@H](O)[C@@H]1O [a-Methyl-D-Mannoside]	1.58
O=C[C@H](O)[C@@H](O)[C@@H](O)CO	2.30
OC[C@@H](O)[C@@H](O[C@H]1O[C@H](CO)[C@@H](O)[C@H](O)[C@H]1O)[C@H](O)[C@@H](O)CO	2.36
CC(=O)N[C@@H]1C(O)O[C@H](CO)[C@@H](O)[C@@H]1O (some centres unmarked)	0.77
CC(=O)N[C@H]1C(O)O[C@H](CO)[C@@H](O)[C@@H]1O (some centres unmarked)	0.27
O=C[C@H](O)[C@@H](O)[C@@H](O)[C@H](O)CO	1.46
NC(=O)CCC(=O)O	0.37
COC(=O)[C@@H](C)O [Methyl D-Lactate]	1.52
COC(=O)C(C)=O [Methyl Pyruvate]	1.57
CC(=O)C(C)O (centres unmarked) [3-Hydroxy 2-Butanone]	1.75
OC[C@@H](O)[C@@H](O)[C@H](O)[C@H](O)CO	0.94
CCC(=O)O	1.55
O=C(O)CCC(=O)O	1.06
O=C(O)CCC(=O)C(=O)O	1.54
Nc1ncnc2c1ncn2[C@@H]1O[C@H](CO)[C@@H](O)[C@H]1O	1.34
CC(O)CO (centres unmarked)	1.41
O=C(O)C[C@H](O)C(=O)O	1.27
OC[C@H]1O[C@H](OC[C@H]2OC(O)(CO)[C@@H](O)[C@@H]2O)[C@H](O)[C@@H](O)[C@@H]1O (some centres unmarked)	1.79
O[C@H]1[C@H](O)[C@@H](O)[C@H](O)[C@@H](O)[C@H]1O	2.13
OC[C@H]1O[C@H](O[C@H]2O[C@H](CO)[C@@H](O)[C@H](O)[C@H]2O)[C@H](O)[C@@H](O)[C@@H]1O	2.24
CO[C@@H]1O[C@H](CO)[C@@H](O)[C@H](O)[C@H]1O [b-Methyl-D-Glucoside]	1.80
OC[C@@H](O)[C@@H](O)[C@H](O)[C@@H](O)CO	2.97
O=c1[nH]cnc2c1ncn2[C@@H]1O[C@H](CO)[C@@H](O)[C@H]1O	5.67
OC[C@H]1O[C@H](OCC2O[C@@H](O)[C@H](O)[C@@H](O)[C@@H]2O)[C@H](O)[C@@H](O)[C@H]1O (some centres unmarked)	1.14
O=C(CO)[C@@H](O)[C@H](O)[C@@H](O)CO	2.05
CC(O)C(C)O (centres unmarked)	1.54
O=C(O)C[C@@H](O)C(=O)O	2.03
CC(O)C(=O)O (centres unmarked)	2.01
O=C(O)C(O)C(O)C(=O)O (centres unmarked)	1.72
O=C[C@@H](O)[C@H](O)[C@H](O)CO	1.50
CO[C@@H]1O[C@H](CO)[C@H](O)[C@H](O)[C@H]1O [b-Methyl-D-Galactoside]	0.68
C[C@@H](O)[C@H](O)[C@H](O)[C@@H](O)C=O	1.96
OC[C@H]1O[C@H](OC[C@H]2O[C@H](O[C@]3(CO)O[C@H](CO)[C@@H](O)[C@@H]3O)[C@H](O)[C@@H](O)[C@@H]2O)[C@H](O)[C@@H](O)[C@H]1O	1.11
OCC1OC(OC2C(CO)OC(OC3C(CO)OC(O)C(O)C3O)C(O)C2O)C(O)C(O)C1O (centres unmarked)	3.36
OC[C@@H](O)[C@H](O)[C@@H](O)CO	1.53
OC[C@@]12OC[C@@H](O1)[C@@H](O)[C@@H](O)[C@@H]2O	0.41
OC[C@H]1O[C@@H](O[C@H]2[C@H](O)[C@@H](O)[C@@H](O)O[C@@H]2CO)[C@H](O)[C@@H](O)[C@H]1O	0.58
OC[C@@H](O)[C@@H](O[C@@H]1O[C@H](CO)[C@H](O)[C@H](O)[C@H]1O)[C@H](O)[C@@H](O)CO	0.26

###

- System: NHBE cells
- experimental.protocol: cells
- Assay type: cell-based, human
- condition.parameters: […]; dose response 4 nM to 10 μM; […]; read-out: IC50, Prophylactic Treatment, Viral Infected

item.smiles	IC50, nM
CCn1nnc2c(N3CCOCC3)nc(-c3ccc(NC(=O)Nc4ccc(C(=O)N5CCN(C)CC5)cc4)cc3)nc21	3000

###

Measured 590 nm absorbance normalized to zero hour (substrate use), 8 hr values are reported for all entries that follow.
- Test system: NHBE cells
- experimental.protocol: Biolog metabolic array: substrate use by NHBE cells with or without CA09 infection
- Format: cell-based, human
- condition.parameters: Virus (CA09-infected, MOI 1) NHBE cells, 8 hr
measured.property: 590 nm absorbance normalized to zero hour (substrate use), 8 hr

item.smiles	endpoint.result
O=C(O)CC(O)(CC(=O)O)C(=O)O	2.95
OC[C@H]1O[C@H](OC[C@H]2O[C@H](O[C@]3(CO)O[C@H](CO)[C@@H](O)[C@@H]3O)[C@H](O)[C@@H](O)[C@@H]2O)[C@H](O)[C@@H](O)[C@H]1O	1.77
OCC(O)CO	4.11
OC[C@H]1O[C@@H]2O[C@H]3[C@H](O)[C@@H](O)[C@@H](O[C@H]4[C@H](O)[C@@H](O)[C@@H](O[C@H]5[C@H](O)[C@@H](O)[C@@H](O[C@H]6[C@H](O)[C@@H](O)[C@@H](O[C@H]7[C@H](O)[C@@H](O)[C@@H](O[C@H]1[C@H](O)[C@H]2O)O[C@@H]7CO)O[C@@H]6CO)O[C@@H]5CO)O[C@@H]4CO)O[C@@H]3CO	4.56
